# Assay Protocol: Cell Viability - HUV-EC-C (AID 542);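 note: cells exposed to compound for 40 hours; nearly all actives have a fitted effect of over 35% in size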
# Experimental Parameters: HUV-EC-C endothelial cell viability, qHTS; series mostly up to 92.2 µM
Records with an inconclusive call do not appear. The source made the active and inactive calls. Calls come from the whole dose curve; as a rule, active = well fitted cell-killing curve with a large enough effect; inconclusive = small, poorly fitted or top-dose-only effect, or effect the other way; inactive = flat fitted curve, though single readings scatter.
Endpoint: outcome

>>> df
                                   molecule  endpoint  assay_result
0          CC(C)COC(=O)c1ccccc1C(=O)OCC(C)C   outcome      inactive
1                 c1ccc(Nc2ccc3ccccc3c2)cc1   outcome      inactive
2                               Oc1ccccc1Cl   outcome      inactive
3                    COC(=O)c1ccccc1C(=O)OC   outcome      inactive
4  CC(C)(c1ccc(OCC2CO2)cc1)c1ccc(OCC2CO2)cc1 (stereo not given)   outcome      inactive
5  COC1=CC(=O)OC(CCc2ccc3c(c2)OCO3)C1 (stereo not given)   outcome      inactive
6                       CC(=O)/C=C/c1ccccc1   outcome      inactive
7                         CCOC(=O)c1ccccc1N   outcome      inactive
8                         CCOc1cc(C=O)ccc1O   outcome      inactive
9               Oc1c(Cl)c(Cl)c(Cl)c(Cl)c1Cl   outcome      inactive

---

# System: NIH3T3
# Assay Protocol: Cytotoxic Profiling of Annotated Libraries Using Quantitative High-Throughput Screening (AID 1296008); note: nearly all actives have a fitted effect of over 60% in size
# Experimental Parameters: Five cell lines viability, CellTiter-Glo ATP luminescence, 48-72 h
Inconclusive results are not listed. Activity calls are given as the source filed them. The call rests on the fitted dose curve; in most records, active means well fitted inhibition curve with a large enough effect; inconclusive means small, poorly fitted or top-dose-only effect; inactive means flat fitted curve, though single readings scatter.
Classes used: TRUE for active, FALSE for inactive

Compound	Group Label
COC1C(O)C(C)OC(OC2C(CO)O[C@@H](O[C@@H]3CC4CCC5C(CC[C@]6(C)[C@@H](C7=CC(=O)OC7)CC[C@]56O)[C@@]4(C)[C@H](OC(C)=O)C3)C(O)C2O)C1O (stereo partly drawn)	FALSE
CC(=O)OC[C@]12C[C@H](OC(=O)CC(C)C)C(C)=C[C@H]1O[C@@H]1[C@H](O)[C@@H](OC(C)=O)[C@@]2(C)[C@@]12CO2	TRUE
C=C(C)[C@@]12O[C@@H]1[C@@]1(C)C(=CC2=O)CC[C@@H](OC(C)=O)[C@@H]1C	TRUE

---

# System Tested: Nucleoprotein (Lymphocytic choriomeningitis virus (strain Armstrong)) (UniProt P09992)
# Sequence (P09992 whole entry, looked up): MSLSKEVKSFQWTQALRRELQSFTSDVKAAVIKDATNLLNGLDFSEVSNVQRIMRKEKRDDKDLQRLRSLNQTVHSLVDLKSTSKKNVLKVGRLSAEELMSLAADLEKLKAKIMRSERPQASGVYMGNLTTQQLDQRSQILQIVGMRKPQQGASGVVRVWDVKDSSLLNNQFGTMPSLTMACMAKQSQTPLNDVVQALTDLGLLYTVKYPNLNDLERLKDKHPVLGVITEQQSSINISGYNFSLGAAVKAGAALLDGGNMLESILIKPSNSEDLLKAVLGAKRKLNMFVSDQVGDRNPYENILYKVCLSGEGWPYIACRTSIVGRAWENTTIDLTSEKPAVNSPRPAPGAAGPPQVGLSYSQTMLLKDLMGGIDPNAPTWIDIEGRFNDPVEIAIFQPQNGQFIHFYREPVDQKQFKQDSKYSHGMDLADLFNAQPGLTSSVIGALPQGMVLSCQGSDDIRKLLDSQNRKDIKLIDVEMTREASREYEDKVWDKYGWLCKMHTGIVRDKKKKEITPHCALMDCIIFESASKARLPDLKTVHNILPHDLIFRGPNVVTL
# Assay Protocol: qHTS for Inhibitors of the Functional Ribonucleoprotein Complex (vRNP) of Lymphocytic Choriomeningitis Arenaviruses (LCMV): LCMV Primary Screen - GLuc reporter signal (AID 1347086); note: nearly all actives have a fitted effect of over 70% in size
# Experimental Parameters: LCMV minigenome vRNP cell assay, Gaussia luciferase reporter; series mostly up to 57.5 µM
Inconclusive results are not listed. Active and inactive are the calls of the source. The call rests on the fitted dose curve.
Classes used: y (active), n (inactive)

>>> df
                                   compound                             system_tested  group_label
0  C/C=C(/C)C(=O)O[C@H]1[C@@H](O)c2c(ccc3ccc(=O)oc23)OC1(C)C  Nucleoprotein (Lymphocytic choriomeningitis virus (strain Armstrong)) (UniProt P09992)            n
1  CC1(C)CCC(CN2CCN(c3ccc(C(=O)NS(=O)(=O)c4ccc(NCC5CCOCC5)c([N+](=O)[O-])c4)c(Oc4cnc5[nH]ccc5c4)c3)CC2)=C(c2ccc(Cl)cc2)C1  Nucleoprotein (Lymphocytic choriomeningitis virus (strain Armstrong)) (UniProt P09992)            n
2       CC(C)=CCCC(C)CCO (stereo not given)  Nucleoprotein (Lymphocytic choriomeningitis virus (strain Armstrong)) (UniProt P09992)            n
3    COc1ccc(CCN(C)CCc2ccc(OC)c(OC)c2)cc1OC  Nucleoprotein (Lymphocytic choriomeningitis virus (strain Armstrong)) (UniProt P09992)            n
4  CC[C@H]1CN2CCc3cc(OC)c(OC)cc3[C@H]2C[C@@H]1C[C@@H]1NCCc2cc(OC)c(OC)cc21  Nucleoprotein (Lymphocytic choriomeningitis virus (strain Armstrong)) (UniProt P09992)            y
5                           Cc1cnc(C)c(C)n1  Nucleoprotein (Lymphocytic choriomeningitis virus (strain Armstrong)) (UniProt P09992)            n
6  CC(C)(O)C1CC[C@@]2(C)C3CCC4[C@@]5(C)CCCC(C)(C)C5C(O)C[C@]4(C)[C@]3(C)CC[C@@H]12 (stereo not given in full)  Nucleoprotein (Lymphocytic choriomeningitis virus (strain Armstrong)) (UniProt P09992)            n
7  Cc1ccc(Nc2cc(-c3cccc(N4C(=O)c5ccccc5C4=O)c3)ncn2)cc1NS(C)(=O)=O  Nucleoprotein (Lymphocytic choriomeningitis virus (strain Armstrong)) (UniProt P09992)            n
8                            CCCCCC/C=C/C=O  Nucleoprotein (Lymphocytic choriomeningitis virus (strain Armstrong)) (UniProt P09992)            n
9               COc1ccc(Nc2nccc(NCCO)n2)cc1  Nucleoprotein (Lymphocytic choriomeningitis virus (strain Armstrong)) (UniProt P09992)            n
